test: Toxicity assay in murine macrophages (resazurin); assay type: cell-based; details: BALB/c, mouse, mouse peritoneal macrophages, G2 piperazine thioureas, 0–125 µM
endpoint_name: CC50 at 72 h (µM)
Write the number in µM without appending the unit.

Examples with answers:
> print(dat)
                                smiles.code  endpoint.name  observed.result
1  S=C(NCCc1ccccc1)N1CCN(c2nc3ccccc3[nH]2)CC1   CC50 at 72 h             72.9
2  S=C(NCc1ccccc1)N1CCN(Cc2ccc3c(c2)OCO3)CC1   CC50 at 72 h              122
3  COc1ccc(CN2CCN(C(=S)NCc3ccccc3)CC2)c(OC)c1OC   CC50 at 72 h             88.3
4      S=C(NCCc1ccccc1)N1CCN(c2ccccc2Cl)CC1   CC50 at 72 h             79.5
5  COc1cc(NC(=S)N2CCN(C(c3ccccc3)c3ccccc3)CC2)cc(OC)c1OC   CC50 at 72 h             81.3

# evaluate next
INPUT: Please look up its CC50 at 72 h: S=C(NCc1ccccc1)N1CCN(c2ccccc2Cl)CC1
OUTPUT: 68.3
